Measured pIC50 values are reported for all entries that follow.
# Test system: Jnk1 + Jnk2
# TEST_SUMMARY: Cell-free kinase assay (ALPHA technology), Jnk1 + Jnk2
# Assay type: biochemical, human
# MEASUREMENT_CONTEXT: 10 μM ATP
Quick note: pIC50 means taking -log10 of the concentration in moles per liter.

Guide cases for pIC50, answers given:
>>> endpoint_result("CCNC(=O)Nc1ccc2ncc(Nc3ccnc(Cl)c3)nc2n1 [Compound 184]")
5.20
>>> endpoint_result("CCNC(=O)Nc1ccc2ncc(-c3ccc(O)cc3Cl)nc2n1 [Compound 170]")
5.96
>>> endpoint_result("CCNC(=O)Nc1ccc2ncc(-c3ccc(N)cc3)nc2n1 [Compound 82]")
5.96
>>> endpoint_result("CCNC(=O)Nc1ccc2ncc(-c3cc(Cl)c(O)c(OC)c3)nc2n1 [Compound 156]")
5.68

# next compound below
Prompt: Give its pIC50 value. Item: CCNC(=O)Nc1ccc2ncc(-c3ccc(OP(=O)(O)O)c(OC)c3)nc2n1 [Compound 169]
Response: 5.02

The values you see were collected from patent US8937068B2.
